- Tested on: Gram-negative bacteria
- protocol-notes: Geometric mean MIC and therapeutic index, Gram-negative
- Type: cell-based
- experimental-parameters: geometric mean of MICs
Ends that are not written are not given here.
# label = 1 if GM MIC Gram-Negative >= 30 µM else -1

Prompt: Say whether GLLSVLGSLKKIVPKAVPKIAEKL-NH2 [Caerin 1.1-LC 11K.19K.PKAVP] shows GM MIC Gram-Negative of 30 µM or more.
Response: -1

Prompt: Say whether GLLSVLGSLKLIVAHVVALIAEKL-NH2 [Caerin 1.1-LC 2P-2A] shows GM MIC Gram-Negative of 30 µM or more.
Response: 1

Prompt: Say whether GLLSVLGSLKLIVPHLLPLIAEKL-NH2 [Caerin 1.1-LC PHLLP] shows GM MIC Gram-Negative of 30 µM or more.
Response: -1

Prompt: Say whether GLLSVLGSLKKIVPHVVPLIAEKL-NH2 [Caerin 1.1-LC 11K] shows GM MIC Gram-Negative of 30 µM or more.
Response: -1

Prompt: Say whether GLLSVLGSLKLIVPGGGPLIAEKL-NH2 [Caerin 1.1-LC PGGGP] shows GM MIC Gram-Negative of 30 µM or more.
Response: 1

Prompt: Say whether GLLSVLGSLKLIVPHWWPLIAEKL-NH2 [Caerin 1.1-LC PHWWP] shows GM MIC Gram-Negative of 30 µM or more.
Response: 1

Prompt: Say whether GLLSVLGSLKKIVPHVVPWIAKKL-NH2 [Caerin 1.1-LC 11K.12K.19W] shows GM MIC Gram-Negative of 30 µM or more.
Response: -1

* * *

Exercise: for every item that follows, state its recorded MBC, A. baumannii (ATCC BAA-747).
- Test system: Acinetobacter baumannii ATCC BAA-747
- Assay type: cell-based
- experimental-parameters: ATCC BAA-747
Ends that are not written are not given here.
Give bare numbers, in µM.

Consider the reported MBC, A. baumannii (ATCC BAA-747) for these substances:
GLLSVLGSLKLIVPHVVPLIAEKL-NH2 [Caerin 1.1-LC] | 128
GLLSVLGSLKKIVPHVVPWIAKKL-NH2 [Caerin 1.1-LC 11K.12K.19W] | 4
GLLSVLKSLKKIVPHVVPKIAEKL-NH2 [Caerin 1.1-LC 7.11.19K] | 8
GLLSVLGSLKLIVPKVVPLIAEKL-NH2 [Caerin 1.1-LC PKVVP] | 32
GLLSVLGSLKKIVPHVVPLIAKKL-NH2 [Caerin 1.1-LC 11K.22K] | 16

Provide each entry's MBC, A. baumannii (ATCC BAA-747) from the list below.
1. GLLSVLGSLKLIVPHLLPLIAEKL-NH2 [Caerin 1.1-LC PHLLP]
2. GLLSVLGSLKKIVPKAVPKIAEKL-NH2 [Caerin 1.1-LC 11K.19K.PKAVP]
3. GLLSVLGSLKKIVPHVVPLIAEKL-NH2 [Caerin 1.1-LC 11K]

Response:
1: 8; 2: 128; 3: 32

Prompt: For the substance GLLSVLGSLKLIVPRVVPLIAEKL-NH2 [Caerin 1.1-LC PRVVP] , what MBC, A. baumannii (ATCC BAA-747) is on record?
Response: 32

* * *

- Test system: Acinetobacter baumannii ATCC BAA-747
- Assay type: cell-based
- experimental-parameters: ATCC BAA-747
Ends that are not written are not given here.
value-kind: MIC, A. baumannii (ATCC BAA-747) (µM)
Give bare numbers, in µM.

Consider the reported MIC, A. baumannii (ATCC BAA-747) for these substances:
GLLSVLGSLKKWVPHVVPLIAKKL-NH2 [Caerin 1.1-LC 11K.12K.12W] | 4
GLLSVLGSLKLIVPHVVPLIAEKL-NH2 [Caerin 1.1-LC] | 16

Let us examine a further case.
Prompt: For the substance GLLSVLKSLKKIVPHVVPKIAEKL-NH2 [Caerin 1.1-LC 7.11.19K] , what MIC, A. baumannii (ATCC BAA-747) is on record?
Response: 4

* * *

- Test system: horse red blood cells
- protocol-notes: Haemolysis assay
- Format: cell-based
- experimental-parameters: concentration inducing 10% haemolysis of horse erythrocytes; 4% (v/v) in PBS, 2 h, 37 °C, absorbance 570 nm; no haemolysis at maximum testing concentration (128 μM) recorded as 256 μM
- Method: The peptide cytotoxicity against mammalian erythrocytes was evaluated by haemolysis assay on horse red blood cells (E&O Laboratories Ltd., Falkirk, UK). Fresh horse blood was washed three times with PBS and resuspended to a final concentration of 4% (v/v) in PBS. […] The absorbance of the supernatants was detected at 570 nm. The percentage haemolysis was calculated by following the equationPercentage Haemolysis = (AbsSample − AbsBlank)/(AbsPositive − AbsBlank) × 100%
Ends that are not written are not given here.
Criterion: HC10 strictly under 30 µM. Met: MET. Not met: NOT MET.

GLLSVLGSLKKIVPKAVPKIAEKL-NH2 [Caerin 1.1-LC 11K.19K.PKAVP] | NOT MET

Prompt: Is the reported HC10 for GLLSVLGSLKKWVPHVVPLIAKKL-NH2 [Caerin 1.1-LC 11K.12K.12W] strictly below 30 µM?
Response: MET

Prompt: Is the reported HC10 for GLLSVLGSLKLIVAHVVALIAEKL-NH2 [Caerin 1.1-LC 2P-2A] strictly below 30 µM?
Response: NOT MET

Prompt: Is the reported HC10 for GLLSVLGSLKLIVPKVVPLIAEKL-NH2 [Caerin 1.1-LC PKVVP] strictly below 30 µM?
Response: MET

* * *

- Tested on: Enterococcus faecalis NCTC 12697
- Format: cell-based
- experimental-parameters: NCTC 12697
Ends that are not written are not given here.
Exercise: for every item that follows, state its recorded MIC, E. faecalis (NCTC 12697).
Numbers only, in µM.

Consider the reported MIC, E. faecalis (NCTC 12697) for these substances:
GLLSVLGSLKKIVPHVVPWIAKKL-NH2 [Caerin 1.1-LC 11K.12K.19W] | 16
GLLSVLGSLKKIVPHVVPLIAKKL-NH2 [Caerin 1.1-LC 11K.22K] | 64

Provide each entry's MIC, E. faecalis (NCTC 12697) from the list below.
1. GLLSVLGSLKKIVPHVVPLIAEKL-NH2 [Caerin 1.1-LC 11K]
2. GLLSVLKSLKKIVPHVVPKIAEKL-NH2 [Caerin 1.1-LC 7.11.19K]

Response:
1. 128
2. 128

* * *

- System: Gram-positive bacteria
- protocol-notes: Geometric mean MIC and therapeutic index, Gram-positive
- Type: cell-based
- experimental-parameters: geometric mean of MICs
Ends that are not written are not given here.
Criterion: GM MIC Gram-Positive strictly under 10 µM. Met: YES. Not met: NO.

# example entries with known answers
GLLSVLGSLKLIVPRVVPLIAEKL-NH2 [Caerin 1.1-LC PRVVP] | YES
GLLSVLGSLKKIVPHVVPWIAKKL-NH2 [Caerin 1.1-LC 11K.12K.19W] | YES
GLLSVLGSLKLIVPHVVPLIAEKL-NH2 [Caerin 1.1-LC] | NO
GLLSVLGSLKLIVPKVVPLIAEKL-NH2 [Caerin 1.1-LC PKVVP] | NO

Prompt: Is the reported GM MIC Gram-Positive for GLLSVLGSLKLIVPHWWPLIAEKL-NH2 [Caerin 1.1-LC PHWWP] strictly below 10 µM?
Response: NO

* * *

Exercise: for every item that follows, state its recorded MBC, K. pneumoniae (ATCC BAA-2342).
- System: K. pneumoniae ATCC BAA-2342
- Type: cell-based, Klebsiella pneumoniae
Ends that are not written are not given here.
Numbers only, in µM.

Consider the reported MBC, K. pneumoniae (ATCC BAA-2342) for these substances:
GLLSVLGSLKLIVPRVVPLIAEKL-NH2 [Caerin 1.1-LC PRVVP] | 32
GLLSVLGSLKKWVPHVVPLIAKKL-NH2 [Caerin 1.1-LC 11K.12K.12W] | 8
GLLSVLGSLKLIVPHIIPLIAEKL-NH2 [Caerin 1.1-LC PHIIP] | 16
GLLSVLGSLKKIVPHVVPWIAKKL-NH2 [Caerin 1.1-LC 11K.12K.19W] | 4
GLLSVLGSLKLIVPKVVPLIAEKL-NH2 [Caerin 1.1-LC PKVVP] | 32
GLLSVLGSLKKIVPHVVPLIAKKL-NH2 [Caerin 1.1-LC 11K.22K] | 4

Let us examine a further case.
Prompt: For the substance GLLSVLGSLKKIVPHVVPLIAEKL-NH2 [Caerin 1.1-LC 11K] , what MBC, K. pneumoniae (ATCC BAA-2342) is on record?
Response: 16

* * *

- System: E. coli ATCC BAA-2340
- Assay type: cell-based, Escherichia coli
Ends that are not written are not given here.
Exercise: for every item that follows, state its recorded log10(MIC, E. coli (ATCC BAA-2340)).
The figures below represent log10 of MIC, E. coli (ATCC BAA-2340), where MIC, E. coli (ATCC BAA-2340) is stated in µM.

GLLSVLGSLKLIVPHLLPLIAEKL-NH2 [Caerin 1.1-LC PHLLP] | 0.60

Provide each entry's log10(MIC, E. coli (ATCC BAA-2340)) from the list below.
1. GLLSVLGSLKLIVPHWWPLIAEKL-NH2 [Caerin 1.1-LC PHWWP]
2. GLLSVLGSLKLIVPGGGPLIAEKL-NH2 [Caerin 1.1-LC PGGGP]
3. GLLSVLGSLKLIVPRVVPLIAEKL-NH2 [Caerin 1.1-LC PRVVP]

Response:
1. 1.20
2. 2.11
3. 0.30

Provide each entry's log10(MIC, E. coli (ATCC BAA-2340)) from the list below.
1. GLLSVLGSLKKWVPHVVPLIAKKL-NH2 [Caerin 1.1-LC 11K.12K.12W]
2. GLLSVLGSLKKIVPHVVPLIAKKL-NH2 [Caerin 1.1-LC 11K.22K]

Response:
[0.30, 0.30]
